# target_of_assay: C-X-C chemokine receptor type 6 (Homo sapiens, UniProt O00574)
# protocol_notes: Antagonist activity at Prolink-tagged human CXCR6 receptor assessed as inhibition of forskolin-induced cAMP accumulation by DiscoveRx cell based assay
# Format: functional
# Sequence (O00574 whole entry): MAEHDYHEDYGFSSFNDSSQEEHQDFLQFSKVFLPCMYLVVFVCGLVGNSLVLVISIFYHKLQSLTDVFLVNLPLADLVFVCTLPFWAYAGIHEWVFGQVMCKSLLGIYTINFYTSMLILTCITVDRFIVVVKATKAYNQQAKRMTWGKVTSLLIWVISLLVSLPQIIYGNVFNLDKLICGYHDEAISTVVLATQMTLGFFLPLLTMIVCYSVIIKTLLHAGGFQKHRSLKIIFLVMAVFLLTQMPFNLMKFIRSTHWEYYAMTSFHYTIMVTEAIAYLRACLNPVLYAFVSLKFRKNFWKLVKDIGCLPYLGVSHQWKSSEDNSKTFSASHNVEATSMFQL
value_type: IC50 (µM)
# number only, unit µM dropped from output

Example entries and their recorded answers appear below.
> print(dat)
                                   compound  value.type  readout.units  reported.result
1  O=C(CN1[C@@H]2CCC[C@H]1C[C@H](NC(=O)c1ccc3c(c1)OCO3)C2)Nc1ccc(Cl)cc1        IC50             µM              5.3
2  COc1ccccc1NC(=O)CN1[C@@H]2CCC[C@H]1C[C@H](NC(=O)c1cc(OC)c(OC)c(OC)c1)C2        IC50             µM             14.7
3  COc1cc(C(=O)N[C@H]2C[C@H]3CCC[C@@H](C2)N3CC(=O)Nc2ccccc2)cc(OC)c1OC        IC50             µM             40.9
4  COc1cc(C(=O)N[C@@H]2C[C@H]3CCC[C@@H](C2)N3Cc2nc3cccc(Cl)c3s2)cc(OC)c1OC        IC50             µM              8.9
5  COc1cc(C(=O)N[C@@H]2C[C@H]3CCC[C@@H](C2)N3Cc2nc3cc(Cl)ccc3s2)cc(OC)c1OC        IC50             µM              3.2

Recorded result, COc1cc(C(=O)N[C@@H]2C[C@H]3CCC[C@@H](C2)N3CC(=O)Nc2ccccc2C)cc(OC)c1OC , IC50: 9.3

Recorded result, COc1cc(C(=O)N[C@@H]2C[C@H]3CCC[C@@H](C2)N3Cc2cc3ccccc3s2)cc(OC)c1OC , IC50: 25

Recorded result, COc1cc(C(=O)N[C@@H]2C[C@H]3CCC[C@@H](C2)N3Cc2nc3ccccc3s2)cc(OC)c1OC , IC50: 7.9

Recorded result, COc1ccc(C(=O)N[C@@H]2C[C@H]3CCC[C@@H](C2)N3CC(=O)Nc2ccc(Cl)cc2)cc1 , IC50: 5.9

Recorded result, COc1cc(C(=O)N[C@@H]2C[C@H]3CCC[C@@H](C2)N3Cc2nc3ccc(Cl)cc3s2)cc(OC)c1OC , IC50: 14

---

# target_of_assay: C-X-C chemokine receptor type 6 (Homo sapiens, UniProt O00574)
# protocol_notes: Antagonist activity at Prolink-tagged human CXCR6 receptor assessed as inhibition of forskolin-induced cAMP accumulation by DiscoveRx cell based assay relative to control
# Assay type: functional
# Parameters: concentration or dose not given beside the values
# test_context: concentration not given here
# Sequence (O00574 whole entry, looked up): as the sequence (O00574 whole entry) above
value_type: inhibition

Example entries and their recorded answers appear below.
> print(dat)
                                   compound  reported.result
1  COc1cc(C(=O)N[C@@H]2C[C@H]3CCC[C@@H](C2)N3Cc2cccc(Cl)c2)cc(OC)c1OC             100%
2  COc1cc(C(=O)N[C@@H]2C[C@H]3CCC[C@@H](C2)N3CC(=O)Nc2cccc(F)c2)cc(OC)c1OC             103%
3  COc1cc(C(=O)N[C@@H]2C[C@H]3CCC[C@@H](C2)N3Cc2nc3cccc(Cl)c3s2)cc(OC)c1OC              93%

# context switch: different molecule, same inhibition
Recorded result, COc1cc(C(=O)N[C@@H]2C[C@H]3CCC[C@@H](C2)N3CC(=O)Nc2ccccc2C#N)cc(OC)c1OC , inhibition: 105%

---

# target_of_assay: C-X-C chemokine receptor type 6 (Homo sapiens)
# protocol_notes: Antagonist activity at Prolink-tagged human CXCR6 receptor assessed as inhibition of CXCL16-induced beta-arrestin recruitment by DiscoveRx cell based assay
A collection of molecules and their measured IC50
# number only, unit µM dropped from output

Example entries and their recorded answers appear below.
> print(dat)
                                   compound  value.type  readout.units  reported.result
1  COc1cc(C(=O)N[C@@H]2C[C@H]3CCC[C@@H](C2)N3Cc2nc3c(F)cccc3s2)cc(OC)c1OC        IC50             µM             0.11
2  COc1cc(C(=O)N[C@@H]2C[C@H]3CCC[C@@H](C2)N3CC(=O)c2nc3ccccc3s2)cc(OC)c1OC        IC50             µM             12.7
3  COc1cc(C(=O)N[C@@H]2C[C@H]3CCC[C@@H](C2)N3Cc2nc3cc(Cl)ccc3s2)cc(OC)c1OC        IC50             µM             0.17
4  COc1cc(C(=O)N[C@@H]2C[C@H]3CCC[C@@H](C2)N3Cc2ccc3ccccc3c2)cc(OC)c1OC        IC50             µM              3.4
5  COc1cc(C(=O)N[C@@H]2C[C@H]3CCC[C@@H](C2)N3Cc2nc3cccc(Cl)c3s2)cc(OC)c1OC        IC50             µM             0.26
6  COc1cc(C(=O)N[C@@H]2C[C@H]3CCC[C@@H](C2)N3CC(=O)Nc2cc(Cl)ccc2Cl)cc(OC)c1OC        IC50             µM             0.13

Recorded result, COc1cc(C(=O)N[C@@H]2C[C@H]3CCC[C@@H](C2)N3Cc2ccc3ccccc3n2)cc(OC)c1OC , IC50: 6.7

Recorded result, COc1cc(C(=O)N[C@@H]2C[C@H]3CCC[C@@H](C2)N3Cc2nc3ccccc3s2)cc(OC)c1OC , IC50: 0.3

Recorded result, COc1cc(C(=O)N[C@@H]2C[C@H]3CCC[C@@H](C2)N3Cc2nc3ccccc3[nH]2)cc(OC)c1OC , IC50: 10.5

---

# target_of_assay: C-X-C chemokine receptor type 6 (Homo sapiens)
# protocol_notes: Antagonist activity at Prolink-tagged human CXCR6 receptor assessed as inhibition of forskolin-induced cAMP accumulation by DiscoveRx cell based assay relative to control
# Format: functional
# Parameters: concentration or dose not given beside the values
# test_context: concentration not given here
value_type: inhibition (%)
# number only, unit % dropped from output

Example entries and their recorded answers appear below.
> print(dat)
                                   compound                           target.of.assay  value.type  readout.units  reported.result
1  COc1cc(C(=O)N[C@@H]2C[C@H]3CCC[C@@H](C2)N3Cc2ccc3ccccc3c2)cc(OC)c1OC  C-X-C chemokine receptor type 6 (Homo sapiens)  inhibition              %               30
2  COc1cc(C(=O)N[C@@H]2C[C@H]3CCC[C@@H](C2)N3CC(=O)Nc2ccc(F)cc2)cc(OC)c1OC  C-X-C chemokine receptor type 6 (Homo sapiens)  inhibition              %               90
3  CCOC(=O)c1ccccc1NC(=O)CN1[C@@H]2CCC[C@H]1C[C@H](NC(=O)c1cc(OC)c(OC)c(OC)c1)C2  C-X-C chemokine receptor type 6 (Homo sapiens)  inhibition              %               96

# context switch: different molecule, same inhibition
Recorded result, COc1cccc(NC(=O)CN2[C@@H]3CCC[C@H]2C[C@H](NC(=O)c2cc(OC)c(OC)c(OC)c2)C3)c1 , inhibition: 93

---

# protocol_notes: Half life in mouse at 5 mg/kg, iv
# Assay type: ADME, organism-based
# test_context: in vivo
value_type: half-life (h)
# number only, unit h dropped from output

Recorded result, COc1cc(C(=O)N[C@@H]2C[C@H]3CCC[C@@H](C2)N3Cc2nc3c(C(F)(F)F)cccc3s2)cc(OC)c1OC , half-life: 1.58

---

A collection of compounds and their measured inhibition
# target_of_assay: C-X-C chemokine receptor type 6 (Homo sapiens)
# protocol_notes: Antagonist activity at Prolink-tagged human CXCR6 receptor assessed as inhibition of CXCL16-induced beta-arrestin recruitment by DiscoveRx cell based assay relative to control
# Design: concentration or dose not given beside the values
# test_context: concentration not given here

Example entries and their recorded answers appear below.
> print(dat)
                                   compound                           target.of.assay  value.type  reported.result
1  COc1cc(C(=O)N[C@@H]2C[C@H]3CCC[C@@H](C2)N3CC(=O)Nc2ccccc2C#N)cc(OC)c1OC  C-X-C chemokine receptor type 6 (Homo sapiens)  inhibition              91%
2  COc1cc(C(=O)N[C@@H]2C[C@H]3CCC[C@@H](C2)N3Cc2nc3c(Br)cccc3s2)cc(OC)c1OC  C-X-C chemokine receptor type 6 (Homo sapiens)  inhibition             102%
3  COc1cc(C(=O)N[C@@H]2C[C@H]3CCC[C@@H](C2)N3CC(=O)Nc2cccc(F)c2)cc(OC)c1OC  C-X-C chemokine receptor type 6 (Homo sapiens)  inhibition             104%
4  COc1cc(C(=O)N[C@@H]2C[C@H]3CCC[C@@H](C2)N3Cc2nc3ccccc3s2)cc(OC)c1OC  C-X-C chemokine receptor type 6 (Homo sapiens)  inhibition             101%
5  COc1cc(C(=O)N[C@@H]2C[C@H]3CCC[C@@H](C2)N3CC(=O)Nc2ccc(Cl)c(Cl)c2)cc(OC)c1OC  C-X-C chemokine receptor type 6 (Homo sapiens)  inhibition             103%
6  COc1cc(C(=O)N[C@@H]2C[C@H]3CCC[C@@H](C2)N3CC(=O)Nc2ccccc2Br)cc(OC)c1OC  C-X-C chemokine receptor type 6 (Homo sapiens)  inhibition             105%
7  COc1cc(C(=O)N[C@@H]2C[C@H]3CCC[C@@H](C2)N3CC(=O)Nc2cccc(Br)c2)cc(OC)c1OC  C-X-C chemokine receptor type 6 (Homo sapiens)  inhibition             104%
8  COc1cc(C(=O)N[C@@H]2C[C@H]3CCC[C@@H](C2)N3CC(=O)Nc2cc(Cl)cc(Cl)c2)cc(OC)c1OC  C-X-C chemokine receptor type 6 (Homo sapiens)  inhibition             104%

Entry COc1cc(C(=O)N[C@@H]2C[C@H]3CCC[C@@H](C2)N3Cc2nc3c(C)cccc3s2)cc(OC)c1OC , tested on C-X-C chemokine receptor type 6 (Homo sapiens), has a reported inhibition of 100%

Entry COc1cc(C(=O)N[C@@H]2C[C@H]3CCC[C@@H](C2)N3CC(=O)Nc2ccc(C)cc2)cc(OC)c1OC , tested on C-X-C chemokine receptor type 6 (Homo sapiens), has a reported inhibition of 100%

Entry COc1cc(C(=O)N[C@@H]2C[C@H]3CC[C@@H](C2)N3CC(=O)Nc2ccccc2)cc(OC)c1OC , tested on C-X-C chemokine receptor type 6 (Homo sapiens), has a reported inhibition of 63%

Entry COc1cc(C(=O)N[C@@H]2C[C@H]3CCC[C@@H](C2)N3Cc2nc3ccccc3[nH]2)cc(OC)c1OC , tested on C-X-C chemokine receptor type 6 (Homo sapiens), has a reported inhibition of 84%

Entry COc1cc(C(=O)N[C@@H]2C[C@H]3CCC[C@@H](C2)N3CC(=O)Nc2ccccc2C)cc(OC)c1OC , tested on C-X-C chemokine receptor type 6 (Homo sapiens), has a reported inhibition of 104%

Entry COc1ccc(NC(=O)CN2[C@@H]3CCC[C@H]2C[C@H](NC(=O)c2cc(OC)c(OC)c(OC)c2)C3)cc1 , tested on C-X-C chemokine receptor type 6 (Homo sapiens), has a reported inhibition of 76%

Entry COc1cc(C(=O)N[C@@H]2C[C@H]3CCC[C@@H](C2)N3Cc2nc3c(Cl)cccc3s2)cc(OC)c1OC , tested on C-X-C chemokine receptor type 6 (Homo sapiens), has a reported inhibition of 103%

Entry COc1cc(C(=O)N[C@@H]2C[C@H]3CCC[C@@H](C2)N3CC(=O)Nc2ccccc2)cc(OC)c1OC , tested on C-X-C chemokine receptor type 6 (Homo sapiens), has a reported inhibition of 65%
